EXPERIMENTAL_PROTOCOL: Toxicity liver stage against HepG2, at 10uM
Format: cell-based
Parameters: test concentration 10 uM, cell line HepG2-A16-CD81EGFP
PARTICULARS: human, HepG2-A16-CD81EGFP cells; read-out: INHIBITION
PROPERTY_LABEL: cytotoxicity at 10 µM (%)
Reply with just the number (in %).

{"columns": ["COMPOUND", "PROPERTY_LABEL", "VALUE_MEASURED"],
 "data": [
  ["Cc1ccccc1CC1(CO)CCCN(c2ncccc2C#N)C1 (centres undefined)", "cytotoxicity at 10 µM", -1.16]
]}

Input Cc1noc2ncnc(NC(CC(C)(C)C)c3cccnc3)c12 (centres undefined) . Output cytotoxicity at 10 µM: 1.41

Input CN(C)[C@@H]1CN(C(=O)Cc2ccsc2)[C@@H]2CCCO[C@H]12 . Output cytotoxicity at 10 µM: 3.08

Input CN(c1ncc(S(N)(=O)=O)s1)C1CCc2ccccc21 (centres undefined) . Output cytotoxicity at 10 µM: -1.62

Input COc1ccc(C(=O)NCc2ccco2)nn1 . Output cytotoxicity at 10 µM: -2.14

Input CC(C)N1CCC(Cc2cncc(-c3cccc(C(=O)O)c3)n2)CC1 . Output cytotoxicity at 10 µM: -20.8
